Listed below: viability, T/C values for each entry.
# Test system: 926638-142-R-J1-PDC complex spheroid viability
# assay explanation: Anticancer human tumor 926638-142-R-J1-PDC patient-derived endometrial carcinoma cell line growth inhibition [POLQ]
# conditions used: second compound 3.16 µM; first compound 0.01 µM; stronger effect = lower value
Provide the reading as a plain figure in %.

Some solved cases for reference:
compound	viability, T/C [%]
Cn1ncnc1[C@H]1c2n[nH]c(=O)c3cc(F)cc(c23)N[C@@H]1c1ccc(F)cc1 + Cc1cccc(N(C)C(=O)C2C(O)CCN2c2nc(C)cc(C(F)(F)F)c2C#N)c1	67.5
CCc1c2c(nc3ccc(O)cc13)-c1cc3c(c(=O)n1C2)COC(=O)[C@]3(O)CC + COC1C(OC(N)=O)C(O)C(Oc2ccc3c(O)c(NC(=O)c4ccc(O)c(CC=C(C)C)c4)c(=O)oc3c2C)OC1(C)C	49.7
C=CCn1c(=O)c2cnc(Nc3ccc(N4CCN(C)CC4)cc3)nc2n1-c1cccc(C(C)(C)O)n1 + Nc1ccc(C#CCN(C(=O)Cc2ncc(C(F)(F)F)cc2C(F)(F)F)c2ccc(F)cc2)nn1	88.9
CCc1c2c(nc3ccc(O)cc13)-c1cc3c(c(=O)n1C2)COC(=O)[C@]3(O)CC + Cc1cccc(N(C)C(=O)C2C(O)CCN2c2nc(C)cc(C(F)(F)F)c2C#N)c1	54

Fill in viability, T/C for record COc1cccc(OCCCN)c1-c1cc(Nc2cnc(C#N)cn2)n[nH]1 + Cc1cccc(N(C)C(=O)C2C(O)CCN2c2nc(C)cc(C(F)(F)F)c2C#N)c1
65.9

###

# Test system: 926638-142-R-J1-PDC complex spheroid viability
# assay explanation: Anticancer human tumor 926638-142-R-J1-PDC cell line growth inhibition [POLQ];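 also: spheroids exposed to drugs for one week before readout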;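 as to viability, T/C: percent viability relative to DMSO vehicle control wells set as 100%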
# conditions used: second compound 10 µM; first compound 0.000316 µM; stronger effect = lower value
measured parameter: viability, T/C (%)
Only the number, expressed in %, is required.

Supply reported viability, T/C belonging to this compound: Cn1ncnc1[C@H]1c2n[nH]c(=O)c3cc(F)cc(c23)N[C@@H]1c1ccc(F)cc1 + COC1C(OC(N)=O)C(O)C(Oc2ccc3c(O)c(NC(=O)c4ccc(O)c(CC=C(C)C)c4)c(=O)oc3c2C)OC1(C)C
84.8

###

# System: 926638-142-R-J1-PDC complex spheroid viability
# assay explanation: Anticancer human tumor 926638-142-R-J1-PDC cell line growth inhibition [POLQ];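 also: spheroids exposed to drugs for one week before readout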
# conditions used: curve of first compound; second compound 0.1 µM
# Method: Multicellular complex tumor spheroid response to Polymerase (POL) inhibitors (novobiocin, ART-558, RP6685) in combination with a variety of drugs and investigational agents in selected tumor cell lines The POL inhibitors (novobiocin, ART-558, and RP6685) were evaluated both individually and in combination with standard of care and investigational anticancer small molecules within a complex spheroid model of solid tumors. . […]
measured parameter: pIC50
Units for pIC50: none; it is -log10 of a concentration expressed in mol/L.

compound	target under test	pIC50
Nc1ccn(C2OC(CO)C(O)C2(F)F)c(=O)n1 (stereo not given) + COC1C(OC(N)=O)C(O)C(Oc2ccc3c(O)c(NC(=O)c4ccc(O)c(CC=C(C)C)c4)c(=O)oc3c2C)OC1(C)C	926638-142-R-J1-PDC complex spheroid viability	5.80

In the following, a different compound is considered.
Give the reported value of pIC50 for this record: CC1COCCN1c1cc(C2(O)CC3CCC(C2)O3)c2cnn(-c3ccn[nH]3)c2n1 (stereo not given) + Cc1cccc(N(C)C(=O)C2C(O)CCN2c2nc(C)cc(C(F)(F)F)c2C#N)c1
6.66
